Values from the supplement of paper PMC10307832

System: SW 1573
Assay: relative viability (nuclei count vs DMSO), 5 days (fraction); higher = more cells survive
Conditions: first compound 0.01581 µM
Measured property: relative viability

Nc1ccn([C@@H]2O[C@H](CO)[C@@H](O)[C@@H]2O)c(=O)n1 [Cytarabine] + O=C(c1cc(Cc2n[nH]c(=O)c3ccccc23)ccc1F)N1CCN(C(=O)C2CC2)CC1 [Olaparib] (partner 8 µM) | 0.329

Input line: Quick check: relative viability of Nc1ccn([C@@H]2O[C@H](CO)[C@@H](O)[C@@H]2O)c(=O)n1 [Cytarabine] + Nc1nc2[nH]cc(CCc3ccc(C(=O)N[C@@H](CCC(=O)O)C(=O)O)cc3)c2c(=O)[nH]1 [Pemetrexed] (partner 0.2 µM) ?
Output line: 0.576

Input line: Quick check: relative viability of Nc1ccn([C@@H]2O[C@H](CO)[C@@H](O)[C@@H]2O)c(=O)n1 [Cytarabine] + Nc1ncn([C@H]2C[C@H](O)[C@@H](CO)O2)c(=O)n1 [Decitabine] (partner 2 µM) ?
Output line: 0.184

====

Test system: HCC-366
Assay: relative viability (nuclei count vs DMSO), 5 days (fraction); higher = more cells survive
Conditions: first compound 0.8 µM
Consider the following compounds and their measured relative viability readings.

Cc1cnc(-c2cnc(NCCNc3ccc(C#N)cn3)nc2-c2ccc(Cl)cc2Cl)[nH]1 + CC1(C)CCC(c2ccc(Cl)cc2)=C(CN2CCN(c3ccc(C(=O)NS(=O)(=O)c4ccc(N[C@H](CCN5CCOCC5)CSc5ccccc5)c(S(=O)(=O)C(F)(F)F)c4)cc3)CC2)C1 [Navitoclax] (partner 0.5 µM) | 1.09
O=c1[nH]c2ccccc2n1C1CCN(CCCC(c2ccc(F)cc2)c2ccc(F)cc2)CC1 [Pimozide] + O=C(c1cc(Cc2n[nH]c(=O)c3ccccc23)ccc1F)N1CCN(C(=O)C2CC2)CC1 [Olaparib] (partner 8 µM) | 0.373

Input line: Quick check: relative viability of O=c1[nH]c2ccccc2n1C1CCN(CCCC(c2ccc(F)cc2)c2ccc(F)cc2)CC1 [Pimozide] + Cc1nc(NC(=O)N2CCC[C@H]2C(N)=O)sc1-c1ccnc(C(C)(C)C(F)(F)F)c1 [Alpelisib] (partner 2 µM) ?
Output line: 0.406

Input line: Quick check: relative viability of O=c1[nH]c2ccccc2n1C1CCN(CCCC(c2ccc(F)cc2)c2ccc(F)cc2)CC1 [Pimozide] + C[C@]1(O)C[C@@H](c2nc(-c3ccc4ccc(-c5ccccc5)nc4c3)c3c(N)nccn32)C1 [Linsitinib] (partner 1 µM) ?
Output line: 0.7

Input line: Quick check: relative viability of O=c1[nH]c2ccccc2n1C1CCN(CCCC(c2ccc(F)cc2)c2ccc(F)cc2)CC1 [Pimozide] + Nc1ncn([C@H]2C[C@H](O)[C@@H](CO)O2)c(=O)n1 [Decitabine] (partner 2 µM) ?
Output line: 0.285

Input line: Quick check: relative viability of Cc1cnc(-c2cnc(NCCNc3ccc(C#N)cn3)nc2-c2ccc(Cl)cc2Cl)[nH]1 + COc1cccc2cc(-c3nc([C@H]4CC[C@H](C(=O)O)CC4)n4ncnc(N)c34)[nH]c12 [OSI-027] (partner 0.5 µM) ?
Output line: 0.558

Input line: Quick check: relative viability of Cc1cnc(-c2cnc(NCCNc3ccc(C#N)cn3)nc2-c2ccc(Cl)cc2Cl)[nH]1 + Cc1nc(NC(=O)N2CCC[C@H]2C(N)=O)sc1-c1ccnc(C(C)(C)C(F)(F)F)c1 [Alpelisib] (partner 2 µM) ?
Output line: 0.33

Input line: Quick check: relative viability of Cc1cnc(-c2cnc(NCCNc3ccc(C#N)cn3)nc2-c2ccc(Cl)cc2Cl)[nH]1 + CS(=O)(=O)CCNCc1ccc(-c2ccc3ncnc(Nc4ccc(OCc5cccc(F)c5)c(Cl)c4)c3c2)o1 [Lapatinib] (partner 2 µM) ?
Output line: 1.08

====

Test system: NCI-H1993
Assay: relative viability (nuclei count vs DMSO), 5 days (fraction); higher = more cells survive
Conditions: first compound 4 µM
Measured property: relative viability
When you answer, write just the number.

# count of solved cases: 2
Cc1sc2c(c1C)C(c1ccc(Cl)cc1)=N[C@@H](CC(=O)OC(C)(C)C)c1nnc(C)n1-2 [JQ1] + COc1cccc2cc(-c3nc([C@H]4CC[C@H](C(=O)O)CC4)n4ncnc(N)c34)[nH]c12 [OSI-027] (partner 0.5 µM) | 0.538
Cc1sc2c(c1C)C(c1ccc(Cl)cc1)=N[C@@H](CC(=O)OC(C)(C)C)c1nnc(C)n1-2 [JQ1] + NC(=O)Nc1cc(-c2cccc(F)c2)sc1C(=O)N[C@H]1CCCNC1 [AZD7762] (partner 0.2 µM) | 0.488

Input line: Quick check: relative viability of Cc1sc2c(c1C)C(c1ccc(Cl)cc1)=N[C@@H](CC(=O)OC(C)(C)C)c1nnc(C)n1-2 [JQ1] + Cc1cc(Nc2cc(N3CCN(C)CC3)nc(Sc3ccc(NC(=O)C4CC4)cc3)n2)n[nH]1 [Tozasertib] (partner 0.1 µM) ?
Output line: 0.489

Input line: Quick check: relative viability of Cc1sc2c(c1C)C(c1ccc(Cl)cc1)=N[C@@H](CC(=O)OC(C)(C)C)c1nnc(C)n1-2 [JQ1] + CC1(C)CCC(c2ccc(Cl)cc2)=C(CN2CCN(c3ccc(C(=O)NS(=O)(=O)c4ccc(N[C@H](CCN5CCOCC5)CSc5ccccc5)c(S(=O)(=O)C(F)(F)F)c4)cc3)CC2)C1 [Navitoclax] (partner 0.5 µM) ?
Output line: 0.875

====

System: HCC-827
Test: relative viability (nuclei count vs DMSO), 5 days (fraction); higher = more cells survive
Details: first compound 4 µM
Consider the following molecules and their measured relative viability readings.

Cc1sc2c(c1C)C(c1ccc(Cl)cc1)=N[C@@H](CC(=O)OC(C)(C)C)c1nnc(C)n1-2 [JQ1] + CC(C)C[C@H](NC(=O)[C@H](Cc1ccccc1)NC(=O)c1cnccn1)B(O)O [Bortezomib] (partner 0.002 µM) | 0.928
Cc1sc2c(c1C)C(c1ccc(Cl)cc1)=N[C@@H](CC(=O)OC(C)(C)C)c1nnc(C)n1-2 [JQ1] + C[C@]1(O)C[C@@H](c2nc(-c3ccc4ccc(-c5ccccc5)nc4c3)c3c(N)nccn32)C1 [Linsitinib] (partner 1 µM) | 0.862

Input line: Quick check: relative viability of Cc1sc2c(c1C)C(c1ccc(Cl)cc1)=N[C@@H](CC(=O)OC(C)(C)C)c1nnc(C)n1-2 [JQ1] + CS(=O)(=O)CCNCc1ccc(-c2ccc3ncnc(Nc4ccc(OCc5cccc(F)c5)c(Cl)c4)c3c2)o1 [Lapatinib] (partner 2 µM) ?
Output line: 0.202

Input line: Quick check: relative viability of Cc1sc2c(c1C)C(c1ccc(Cl)cc1)=N[C@@H](CC(=O)OC(C)(C)C)c1nnc(C)n1-2 [JQ1] + N=C(N)NC(=N)NCCc1ccccc1 [Phenformin] (partner 250 µM) ?
Output line: 0.449

====

Test system: NCI-H727
Assay: relative viability (nuclei count vs DMSO), 5 days (fraction); higher = more cells survive
Conditions: first compound 500 µM
Measured property: relative viability
When you answer, write just the number.

O=C(O)CCCCC(CCSCc1ccccc1)SCc1ccccc1 (stereo not drawn) [CPI-613] + Cc1nc(Nc2ncc(C(=O)Nc3c(C)cccc3Cl)s2)cc(N2CCN(CCO)CC2)n1 [Dasatinib] (partner 0.075 µM) | 0.138
O=C(O)CCCCC(CCSCc1ccccc1)SCc1ccccc1 (stereo not drawn) [CPI-613] + COc1cccc2cc(-c3nc([C@H]4CC[C@H](C(=O)O)CC4)n4ncnc(N)c34)[nH]c12 [OSI-027] (partner 0.5 µM) | 0.334

Next:
Input line: Form: Entry = O=C(O)CCCCC(CCSCc1ccccc1)SCc1ccccc1 (stereo not drawn) [CPI-613] + CS(=O)(=O)N1CCN(Cc2cc3nc(-c4cccc5[nH]ncc45)nc(N4CCOCC4)c3s2)CC1 [Pictilisib] (partner 1 µM) | System = NCI-H727 | relative viability = ____
Output line: 0.0223

====

Test system: NCI-H1355
Test: relative viability (nuclei count vs DMSO), 5 days (fraction); higher = more cells survive
Details: first compound 0.5 µM
// assign 1.0 if relative viability falls strictly below 0.4, else 0.0 (ties count as 0.0)

Solved entries:
Nc1ccn([C@@H]2O[C@H](CO)[C@@H](O)[C@@H]2O)c(=O)n1 [Cytarabine] + CS(=O)(=O)N1CCN(Cc2cc3nc(-c4cccc5[nH]ncc45)nc(N4CCOCC4)c3s2)CC1 [Pictilisib] (partner 1 µM) | 1.0
COc1cc2nccc(Oc3ccc(NC(=O)Nc4cc(C)on4)c(Cl)c3)c2cc1OC [Tivozanib] + C[C@@H](Oc1cc(-c2cnn(C3CCNCC3)c2)cnc1N)c1c(Cl)ccc(F)c1Cl [Crizotinib] (partner 1 µM) | 0.0

Input line: Field: below-cutoff. Rule: recorded relative viability strictly less than 0.4. Subject: COc1cc2nccc(Oc3ccc(NC(=O)Nc4cc(C)on4)c(Cl)c3)c2cc1OC [Tivozanib] + CS(=O)(=O)N1CCN(Cc2cc3nc(-c4cccc5[nH]ncc45)nc(N4CCOCC4)c3s2)CC1 [Pictilisib] (partner 1 µM)
Output line: 1.0

Input line: Field: below-cutoff. Rule: recorded relative viability strictly less than 0.4. Subject: COc1cc2nccc(Oc3ccc(NC(=O)Nc4cc(C)on4)c(Cl)c3)c2cc1OC [Tivozanib] + N=C(N)NC(=N)NCCc1ccccc1 [Phenformin] (partner 250 µM)
Output line: 1.0

Input line: Field: below-cutoff. Rule: recorded relative viability strictly less than 0.4. Subject: COc1cc2nccc(Oc3ccc(NC(=O)Nc4cc(C)on4)c(Cl)c3)c2cc1OC [Tivozanib] + CCNC(=O)c1noc(-c2cc(C(C)C)c(O)cc2O)c1-c1ccc(CN2CCOCC2)cc1 [Luminespib] (partner 0.01 µM)
Output line: 0.0

Input line: Field: below-cutoff. Rule: recorded relative viability strictly less than 0.4. Subject: Nc1ccn([C@@H]2O[C@H](CO)[C@@H](O)[C@@H]2O)c(=O)n1 [Cytarabine] + NC(=O)Nc1cc(-c2cccc(F)c2)sc1C(=O)N[C@H]1CCCNC1 [AZD7762] (partner 0.2 µM)
Output line: 1.0

Input line: Field: below-cutoff. Rule: recorded relative viability strictly less than 0.4. Subject: COc1cc2nccc(Oc3ccc(NC(=O)Nc4cc(C)on4)c(Cl)c3)c2cc1OC [Tivozanib] + COc1cccc2cc(-c3nc([C@H]4CC[C@H](C(=O)O)CC4)n4ncnc(N)c34)[nH]c12 [OSI-027] (partner 0.5 µM)
Output line: 1.0
